target_under_test: native human MET on living human cells (human, UniProt P08581 25-1390)
Sequence (P08581 25-1390): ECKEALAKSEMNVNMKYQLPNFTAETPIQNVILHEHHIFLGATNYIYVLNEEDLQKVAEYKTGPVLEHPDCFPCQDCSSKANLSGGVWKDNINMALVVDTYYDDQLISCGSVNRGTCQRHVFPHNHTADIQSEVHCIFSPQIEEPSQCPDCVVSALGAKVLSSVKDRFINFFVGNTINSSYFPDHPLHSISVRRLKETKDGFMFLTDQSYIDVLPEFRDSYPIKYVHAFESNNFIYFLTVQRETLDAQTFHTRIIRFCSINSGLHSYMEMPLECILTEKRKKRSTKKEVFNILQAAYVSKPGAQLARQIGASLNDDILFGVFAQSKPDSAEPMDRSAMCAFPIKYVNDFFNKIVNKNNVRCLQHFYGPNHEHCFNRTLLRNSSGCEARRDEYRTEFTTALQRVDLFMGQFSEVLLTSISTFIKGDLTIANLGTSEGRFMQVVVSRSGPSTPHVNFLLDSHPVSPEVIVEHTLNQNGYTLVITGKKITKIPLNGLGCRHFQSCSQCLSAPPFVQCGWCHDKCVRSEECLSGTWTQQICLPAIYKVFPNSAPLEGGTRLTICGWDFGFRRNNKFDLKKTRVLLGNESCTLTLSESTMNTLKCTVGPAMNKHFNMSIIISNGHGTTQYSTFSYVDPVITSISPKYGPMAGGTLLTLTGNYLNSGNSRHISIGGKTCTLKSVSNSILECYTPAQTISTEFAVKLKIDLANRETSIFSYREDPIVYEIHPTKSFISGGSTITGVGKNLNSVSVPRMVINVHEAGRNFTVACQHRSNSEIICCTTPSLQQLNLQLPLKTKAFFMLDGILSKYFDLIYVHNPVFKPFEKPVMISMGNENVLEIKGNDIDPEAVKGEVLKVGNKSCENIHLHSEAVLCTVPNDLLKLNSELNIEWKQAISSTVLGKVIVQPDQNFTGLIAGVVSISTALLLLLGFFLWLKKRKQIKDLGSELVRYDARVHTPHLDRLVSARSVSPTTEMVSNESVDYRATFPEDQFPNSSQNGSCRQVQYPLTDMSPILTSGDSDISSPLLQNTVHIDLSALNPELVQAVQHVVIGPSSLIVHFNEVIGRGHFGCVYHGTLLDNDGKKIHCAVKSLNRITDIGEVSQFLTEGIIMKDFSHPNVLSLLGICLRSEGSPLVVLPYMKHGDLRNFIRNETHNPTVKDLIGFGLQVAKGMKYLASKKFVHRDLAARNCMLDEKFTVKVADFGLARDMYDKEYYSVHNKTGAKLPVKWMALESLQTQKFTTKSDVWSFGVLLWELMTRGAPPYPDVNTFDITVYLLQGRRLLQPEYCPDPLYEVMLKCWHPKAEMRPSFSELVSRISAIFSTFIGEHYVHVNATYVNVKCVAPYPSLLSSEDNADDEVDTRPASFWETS
assay_procedure: cell-based or functional assay

binder: chimeric llama-human IgG1 mAb 71G3 (antibody, V domains shown) VH: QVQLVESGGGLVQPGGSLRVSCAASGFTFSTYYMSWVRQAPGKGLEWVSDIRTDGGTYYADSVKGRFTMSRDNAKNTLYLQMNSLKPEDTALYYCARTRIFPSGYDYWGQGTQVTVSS VL: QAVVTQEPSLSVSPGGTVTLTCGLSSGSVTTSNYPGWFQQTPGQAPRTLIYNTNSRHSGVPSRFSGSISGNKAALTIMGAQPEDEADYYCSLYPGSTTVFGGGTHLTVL
cell scattering score, HPAF-II, 0.037 nM [score 0-4]: 2

binder: chimeric llama-human IgG1 mAb 71C3 (antibody, V domains shown) VH: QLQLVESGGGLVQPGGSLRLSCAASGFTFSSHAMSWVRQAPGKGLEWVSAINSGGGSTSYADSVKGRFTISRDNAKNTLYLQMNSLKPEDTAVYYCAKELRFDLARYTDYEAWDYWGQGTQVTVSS VL: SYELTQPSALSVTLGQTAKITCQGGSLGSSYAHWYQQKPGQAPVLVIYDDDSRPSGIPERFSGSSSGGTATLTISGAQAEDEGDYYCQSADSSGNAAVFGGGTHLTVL
cell scattering score, HPAF-II, 0.037 nM [score 0-4]: 0

binder: chimeric llama-human IgG1 mAb 71A3 (antibody, V domains shown) VH: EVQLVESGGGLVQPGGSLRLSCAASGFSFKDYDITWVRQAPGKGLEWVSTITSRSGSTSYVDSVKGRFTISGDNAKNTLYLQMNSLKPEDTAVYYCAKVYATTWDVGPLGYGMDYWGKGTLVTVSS VL: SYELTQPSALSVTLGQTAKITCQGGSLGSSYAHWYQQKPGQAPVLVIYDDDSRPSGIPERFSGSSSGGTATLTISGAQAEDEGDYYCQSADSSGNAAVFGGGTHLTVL
cell scattering score, HPAF-II, 0.037 nM [score 0-4]: 3

Ref: patent US20210024639A1
